Target: T1, His-HER3 (UniProt P21860 20-643, limits assumed)
T1 construct: Analyte of the Biacore assay; not shown: His tag
Assay: SPR, Biacore T200, antibody captured on protein A chip, His-HER3 as analyte
Experimental: Affinity assay by surface plasmon resonance (SPR): antibody kinetics and affinity were determined using Biacore T200. Briefly, the recombinant human HER3 antibody was immobilized on a protein A chip (GE, Cat. 29-1275-5). The binding affinity of humanized 3F8 (hu3F8) and chimeric 3F8. Binding kinetics of 3 humanized 3F8 clones and chimeric 3F8 were determined by Biacore. Three humanized 3F8 clones (clone 1, clone 2 and clone 3) had different heavy chains and one identical light chain. […]
measuredEndpoint: kon

Prompt line: Looking for the measured kon of humanized 3F8 antibody hu3F8-2 (antibody, human IgG1, kappa, V domains shown, also called Clone 2; clone-2) VH: QVQLQESGPGLVKPSETLSLTCTVSGYSITSAYYWNWIRQPFGKGLEWMGYISYDGRNNFNPSLKNRVTISRDTSKNQFSLKLSSVTAADTAVYYCARDGDYDYFDYWGQGTTVTVSS VL: DIQMTQSPSSLSASVGDRVTITCRASQDISNYLNWYQQKPGKAPKLLIYYTSILHSGVPSRFSGSGSGTDYTFTISSLQPEDIATYFCQQGDTLPPTFGGGTKLEIKR , can you help?
Response line: 666000 M⁻¹ s⁻¹

Prompt line: Then chimeric 3F8 antibody (antibody, human IgG1, V domains shown, also called ch3F8; Chimeric antibody) VH: DVQLQESGPGLVKPSQSLSLTCSVTGYSITSAYYWNWIRQFPGDKLEWMGYISYDGRNNFNPSLKNRISITRDTSKNQFFLKLNSVTSGDTATYYCARDGDYDYFDYWGQGTTLTVSS VL: DIQMTQTTSSLSASLGDRVTISCRASQDISNYLNWYQQKPDGTFKLLIYYTSILHSGVPSRFSGSGSGTDYSLTISNLEQEDIATYFCQQGDTLPPTFGAGTKLELK ?
Response line: 628000 M⁻¹ s⁻¹

Prompt line: Then humanized 3F8 antibody hu3F8-3 (antibody, human IgG1, kappa, V domains shown, also called Clone 3; clone-3) VH: QVQLQESGPGLVKPSETLSLTCTVSGYSITSAYYWNWIRQPFGKGLEWMGYISYDGRNNFNPSLKNRVSISRDTSKNQFSLKLSSVTAADTATYYCARDGDYDYFDYWGQGTTVTVSS VL: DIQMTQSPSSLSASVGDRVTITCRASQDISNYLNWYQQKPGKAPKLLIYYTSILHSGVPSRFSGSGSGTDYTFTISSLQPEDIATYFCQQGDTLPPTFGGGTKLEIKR ?
Response line: 644000 M⁻¹ s⁻¹
